- Tested System: USP16-UBD (USP16 25-185) (Homo sapiens, UniProt Q9Y5T5)
- Sequence (Q9Y5T5 25-185): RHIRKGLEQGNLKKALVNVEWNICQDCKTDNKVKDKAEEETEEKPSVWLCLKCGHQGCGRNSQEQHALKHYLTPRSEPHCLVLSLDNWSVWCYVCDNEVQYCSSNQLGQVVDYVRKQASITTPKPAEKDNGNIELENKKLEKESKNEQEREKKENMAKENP
- Measurement Notes: SPR, steady state
- Assay type: binding
Each entry below carries its recorded pKd.
Notebook: values listed as pKd are -log10 of the concentration (mol/L).

Worked cases, pKd given:
- Molecule: "COc1ccccc1CN(C)C(=O)Cn1c(CCC(=O)O)nc2c(Cl)cccc2c1=O"
  Reported Result: 5.25
- Molecule: "CN(Cc1ccccc1F)C(=O)Cn1c(CCC(=O)O)nc2c(Cl)cccc2c1=O"
  Reported Result: 5.60
- Molecule: "O=C(O)CCc1nc2c(Cl)cccc2c(=O)n1CC(=O)NCc1ccccc1F"
  Reported Result: 6.40
- Molecule: "CCOc1ccccc1CNC(=O)Cn1c(CCC(=O)O)nc2c(Cl)cccc2c1=O"
  Reported Result: 5.54
- Molecule: "C[C@@H](c1ccccc1F)N(C)C(=O)Cn1c(CCC(=O)O)nc2c(Cl)cccc2c1=O"
  Reported Result: 5.54

Find the recorded pKd belonging to `C[C@H](NC(=O)Cn1c(CCC(=O)O)nc2c(Cl)cccc2c1=O)c1c(F)cccc1F` and report it.
7.32

Find the recorded pKd belonging to `O=C(O)CCc1nc2c(Cl)cccc2c(=O)n1CC(=O)NCc1ccccc1Cl` and report it.
5.92

---

- Tested System: HDAC6-UBD (HDAC6 1109-1215) (Homo sapiens)
- Sequence (Q9UBN7 1109-1215): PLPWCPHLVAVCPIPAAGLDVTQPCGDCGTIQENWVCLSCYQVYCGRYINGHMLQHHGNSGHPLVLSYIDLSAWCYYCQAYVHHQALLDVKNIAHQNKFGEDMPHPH
- Measurement Notes: SPR, steady state
- Format: binding
Each entry below carries its recorded Kd.
Report the value in nM with no unit label.

Worked cases, Kd given:
- Compound: "C[C@H](NC(=O)Cn1c(CCC(=O)O)nc2c(Cl)cccc2c1=O)c1c(F)cccc1F [compound 15]"
  Quantity Name: "Kd"
  Quantity Unit: "nM"
  Reported Result: 16
- Compound: "CN(Cc1ccccc1F)C(=O)Cn1c(CCC(=O)O)nc2c(Cl)cccc2c1=O [compound 11]"
  Quantity Name: "Kd"
  Quantity Unit: "nM"
  Reported Result: 32300
- Compound: "CCOc1ccccc1CNC(=O)Cn1c(CCC(=O)O)nc2c(Cl)cccc2c1=O [compound 7]"
  Quantity Name: "Kd"
  Quantity Unit: "nM"
  Reported Result: 650
- Compound: "C[C@H](NC(=O)Cn1c(CCC(=O)O)nc2c(Cl)cccc2c1=O)c1ccccc1F [compound 12]"
  Quantity Name: "Kd"
  Quantity Unit: "nM"
  Reported Result: 50
- Compound: "COc1ccccc1C(C)NC(=O)Cn1c(CCC(=O)O)nc2c(Cl)cccc2c1=O (centres unmarked) [compound 3]"
  Quantity Name: "Kd"
  Quantity Unit: "nM"
  Reported Result: 50

Find the recorded Kd belonging to C[C@@H](c1ccccc1F)N(C)C(=O)Cn1c(CCC(=O)O)nc2c(Cl)cccc2c1=O [compound 13] and report it.
31300

Find the recorded Kd belonging to O=C(O)CCc1nc2c(Cl)cccc2c(=O)n1CC(=O)NCC1CCCOC1 (centres unmarked) [compound 6] and report it.
2100

---

- Tested System: USP33 (Homo sapiens, UniProt Q8TEY7)
- Construct: UBD, residues 29-134
- Sequence (Q8TEY7 whole entry, the tested form may be a part): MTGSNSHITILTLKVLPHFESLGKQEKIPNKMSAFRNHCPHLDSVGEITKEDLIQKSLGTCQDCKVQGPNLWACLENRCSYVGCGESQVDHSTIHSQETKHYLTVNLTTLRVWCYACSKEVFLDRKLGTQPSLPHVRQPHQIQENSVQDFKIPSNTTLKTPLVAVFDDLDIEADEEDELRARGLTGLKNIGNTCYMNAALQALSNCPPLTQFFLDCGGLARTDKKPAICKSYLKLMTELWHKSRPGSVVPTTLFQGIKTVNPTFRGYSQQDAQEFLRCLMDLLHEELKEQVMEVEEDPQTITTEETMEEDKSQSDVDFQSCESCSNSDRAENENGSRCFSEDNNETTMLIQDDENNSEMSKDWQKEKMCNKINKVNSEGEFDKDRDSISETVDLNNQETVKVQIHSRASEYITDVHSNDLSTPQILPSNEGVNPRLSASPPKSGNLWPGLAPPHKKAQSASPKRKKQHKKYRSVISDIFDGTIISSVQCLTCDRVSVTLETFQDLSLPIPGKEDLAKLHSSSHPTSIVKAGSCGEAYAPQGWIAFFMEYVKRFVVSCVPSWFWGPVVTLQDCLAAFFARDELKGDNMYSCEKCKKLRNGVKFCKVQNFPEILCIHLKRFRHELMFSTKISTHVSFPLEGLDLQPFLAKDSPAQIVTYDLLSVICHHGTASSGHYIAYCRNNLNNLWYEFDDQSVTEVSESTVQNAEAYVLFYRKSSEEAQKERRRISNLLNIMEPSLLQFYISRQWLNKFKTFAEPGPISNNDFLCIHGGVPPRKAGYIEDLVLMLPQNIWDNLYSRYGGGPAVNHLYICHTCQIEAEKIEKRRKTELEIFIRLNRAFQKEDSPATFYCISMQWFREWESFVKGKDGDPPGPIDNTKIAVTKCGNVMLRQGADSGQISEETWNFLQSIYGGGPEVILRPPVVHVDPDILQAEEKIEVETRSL
- Measurement Notes: biochemical
- Design: SPR, steady-state binding to immobilised biotinylated UBD proteins
- Condition: read-out: Negative Control KD (nM) SGC-UBD1031N
Quantity Name: Kd

Find the recorded Kd belonging to `C[C@@H](NC(=O)Cn1c(CCC(=O)O)nc2c(Cl)cccc2c1=O)c1c(F)cccc1F` and report it.
> 10000 nM

---

- Tested System: USP3 (Homo sapiens, UniProt Q9Y6I4)
- Sequence (Q9Y6I4 whole entry): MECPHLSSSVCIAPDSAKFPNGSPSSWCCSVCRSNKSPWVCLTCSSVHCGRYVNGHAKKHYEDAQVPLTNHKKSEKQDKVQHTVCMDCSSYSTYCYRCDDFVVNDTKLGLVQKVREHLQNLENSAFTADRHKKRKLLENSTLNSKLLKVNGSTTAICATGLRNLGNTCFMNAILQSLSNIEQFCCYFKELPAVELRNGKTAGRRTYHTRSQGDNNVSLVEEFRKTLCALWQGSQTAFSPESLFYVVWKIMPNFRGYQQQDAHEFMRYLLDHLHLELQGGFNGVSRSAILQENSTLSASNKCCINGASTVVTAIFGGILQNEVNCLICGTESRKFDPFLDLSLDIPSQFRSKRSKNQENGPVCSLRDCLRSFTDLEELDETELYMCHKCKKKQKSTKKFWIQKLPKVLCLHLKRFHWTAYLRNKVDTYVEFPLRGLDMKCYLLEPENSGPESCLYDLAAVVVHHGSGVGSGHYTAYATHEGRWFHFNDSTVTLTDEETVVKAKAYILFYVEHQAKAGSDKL
- Measurement Notes: biochemical
- Design: SPR, steady-state binding to immobilised biotinylated UBD proteins
- Condition: read-out: Negative Control KD (nM) SGC-UBD1031N
Quantity Name: Kd
Units required after the number.

Find the recorded Kd belonging to `C[C@@H](NC(=O)Cn1c(CCC(=O)O)nc2c(Cl)cccc2c1=O)c1c(F)cccc1F` and report it.
8700 nM

---

- Tested System: USP3 (Homo sapiens, UniProt Q9Y6I4)
- Measurement Notes: biochemical
- Parameters: SPR, steady-state binding to immobilised biotinylated UBD proteins
- Condition: read-out: Probe KD (nM) SGC-UBD1031
Quantity Name: Kd

Any idea what Kd came out for C[C@H](NC(=O)Cn1c(CCC(=O)O)nc2c(Cl)cccc2c1=O)c1c(F)cccc1F [compound 15] on USP3 (Homo sapiens, UniProt Q9Y6I4)?
> 10000 nM

---

- Tested System: USP33 (Homo sapiens, UniProt Q8TEY7)
- Construct: UBD, residues 29-134
- Measurement Notes: biochemical
- Design: SPR, steady-state binding to immobilised biotinylated UBD proteins
- Condition: read-out: Probe KD (nM) SGC-UBD1031
Quantity Name: Kd

Any idea what Kd came out for C[C@H](NC(=O)Cn1c(CCC(=O)O)nc2c(Cl)cccc2c1=O)c1c(F)cccc1F [compound 15] on USP33 (Homo sapiens, UniProt Q8TEY7)?
> 10000 nM

---

- Tested System: USP49 (Homo sapiens)
- Construct: UBD, residues 1-115
- Sequence (Q70CQ1 1-688): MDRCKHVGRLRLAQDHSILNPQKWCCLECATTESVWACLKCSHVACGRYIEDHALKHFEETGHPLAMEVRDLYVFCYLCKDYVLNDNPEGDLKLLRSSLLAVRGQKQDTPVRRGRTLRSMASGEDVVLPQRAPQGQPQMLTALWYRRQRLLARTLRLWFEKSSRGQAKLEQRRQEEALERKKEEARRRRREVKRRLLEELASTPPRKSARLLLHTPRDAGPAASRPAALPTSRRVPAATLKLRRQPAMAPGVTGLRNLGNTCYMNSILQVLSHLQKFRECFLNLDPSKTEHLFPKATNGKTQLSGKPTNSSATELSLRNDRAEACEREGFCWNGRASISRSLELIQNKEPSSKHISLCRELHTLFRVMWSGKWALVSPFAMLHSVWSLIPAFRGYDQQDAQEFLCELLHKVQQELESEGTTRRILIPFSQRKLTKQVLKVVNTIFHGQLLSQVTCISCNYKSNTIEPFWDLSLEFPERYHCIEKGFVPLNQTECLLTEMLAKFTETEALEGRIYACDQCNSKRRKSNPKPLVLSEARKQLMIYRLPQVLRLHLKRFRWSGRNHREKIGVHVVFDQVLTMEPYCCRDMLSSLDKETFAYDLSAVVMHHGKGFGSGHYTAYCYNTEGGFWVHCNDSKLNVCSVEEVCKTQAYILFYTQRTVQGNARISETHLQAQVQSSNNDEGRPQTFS
- Measurement Notes: biochemical
- Design: SPR, steady-state binding to immobilised biotinylated UBD proteins
- Condition: read-out: Negative Control KD (nM) SGC-UBD1031N
Quantity Name: Kd (nM)
Report the value in nM with no unit label.

Find the recorded Kd belonging to C[C@@H](NC(=O)Cn1c(CCC(=O)O)nc2c(Cl)cccc2c1=O)c1c(F)cccc1F [compound 16] and report it.
6700

---

- Tested System: USP5 (Homo sapiens, UniProt P45974)
- Construct: UBD, residues 171-290
- Sequence (P45974 1-858): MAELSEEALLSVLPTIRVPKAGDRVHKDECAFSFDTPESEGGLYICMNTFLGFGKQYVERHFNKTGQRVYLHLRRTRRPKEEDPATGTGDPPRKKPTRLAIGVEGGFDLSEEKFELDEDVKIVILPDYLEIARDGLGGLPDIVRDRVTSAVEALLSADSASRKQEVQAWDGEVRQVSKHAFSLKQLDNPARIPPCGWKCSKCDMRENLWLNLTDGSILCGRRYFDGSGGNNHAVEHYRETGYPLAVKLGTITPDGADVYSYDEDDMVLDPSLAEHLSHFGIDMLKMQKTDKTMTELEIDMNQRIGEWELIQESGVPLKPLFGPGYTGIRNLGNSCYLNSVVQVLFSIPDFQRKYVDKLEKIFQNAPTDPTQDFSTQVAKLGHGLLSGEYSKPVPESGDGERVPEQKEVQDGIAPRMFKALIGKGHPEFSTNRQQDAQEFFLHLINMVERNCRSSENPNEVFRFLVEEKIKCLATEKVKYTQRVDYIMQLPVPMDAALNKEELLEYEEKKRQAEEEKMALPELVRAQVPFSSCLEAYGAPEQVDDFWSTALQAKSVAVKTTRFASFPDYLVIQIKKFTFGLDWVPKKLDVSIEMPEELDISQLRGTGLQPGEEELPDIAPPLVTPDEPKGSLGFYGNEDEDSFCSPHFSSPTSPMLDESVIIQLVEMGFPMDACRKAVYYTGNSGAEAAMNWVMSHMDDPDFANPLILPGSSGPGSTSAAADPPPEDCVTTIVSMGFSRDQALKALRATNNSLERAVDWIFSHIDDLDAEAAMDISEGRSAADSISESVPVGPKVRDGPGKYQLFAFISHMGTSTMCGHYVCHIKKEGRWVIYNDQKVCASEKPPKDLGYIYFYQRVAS
- Measurement Notes: biochemical
- Design: SPR, steady-state binding to immobilised biotinylated UBD proteins
- Condition: read-out: Negative Control KD (nM) SGC-UBD1031N
Quantity Name: Kd

Find the recorded Kd belonging to C[C@@H](NC(=O)Cn1c(CCC(=O)O)nc2c(Cl)cccc2c1=O)c1c(F)cccc1F [compound 16] and report it.
> 10000 nM
